B1: tRNA (parent)
chain: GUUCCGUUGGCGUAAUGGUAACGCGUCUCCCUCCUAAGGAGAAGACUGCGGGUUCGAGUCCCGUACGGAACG

Variants of: B1
measurement.description: yeast fitness, log relative to wild type (ln ratio); higher = fitter; tRNA-Arg(CCU), competitive growth, 37 C, 1 M NaCl
quantity.kind: yeast fitness (ln)
Just the number, please.

Query: Please give the measured yeast fitness (ln) for this variant: U2G A43C A69G C71U
Result: -0.163

Query: Quick check: yeast fitness (ln) of G1A C27U C66U A69G A70G C71U ?
Result: -0.361

Query: yeast fitness (ln) for U2C G6U A43C C66U A70G C71U ?
Result: -0.172

Query: Which yeast fitness (ln) reading was recorded for the variant G1A U2C A43C C46U A69G A70U C71U ?
Result: -0.384

Query: What does the record list as yeast fitness (ln) for G1A C46U C66U A70G C71U ?
Result: -0.493

Query: Form field: reported yeast fitness (ln) of G6U C27U A43C C46U C66U A70U
Result: -0.322

Query: Return reported yeast fitness (ln); argument: G1A C27U C46U C66U A69G A70U
Result: -0.286

Query: Query (variant): G1A U2C G6U A43C C46U C66U A70U C71U ; field requested: yeast fitness (ln)
Result: -0.235

Query: Quick check: yeast fitness (ln) of G6U C27U C46U A69G A70U ?
Result: -0.292

Sourced from the RNAGym collection of RNA variant scans (doi:10.1038/s41586-018-0170-7)
